# tgt: BRAF V600E (Homo sapiens, UniProt P15056, V600E)
# Sequence (P15056 whole entry V600E): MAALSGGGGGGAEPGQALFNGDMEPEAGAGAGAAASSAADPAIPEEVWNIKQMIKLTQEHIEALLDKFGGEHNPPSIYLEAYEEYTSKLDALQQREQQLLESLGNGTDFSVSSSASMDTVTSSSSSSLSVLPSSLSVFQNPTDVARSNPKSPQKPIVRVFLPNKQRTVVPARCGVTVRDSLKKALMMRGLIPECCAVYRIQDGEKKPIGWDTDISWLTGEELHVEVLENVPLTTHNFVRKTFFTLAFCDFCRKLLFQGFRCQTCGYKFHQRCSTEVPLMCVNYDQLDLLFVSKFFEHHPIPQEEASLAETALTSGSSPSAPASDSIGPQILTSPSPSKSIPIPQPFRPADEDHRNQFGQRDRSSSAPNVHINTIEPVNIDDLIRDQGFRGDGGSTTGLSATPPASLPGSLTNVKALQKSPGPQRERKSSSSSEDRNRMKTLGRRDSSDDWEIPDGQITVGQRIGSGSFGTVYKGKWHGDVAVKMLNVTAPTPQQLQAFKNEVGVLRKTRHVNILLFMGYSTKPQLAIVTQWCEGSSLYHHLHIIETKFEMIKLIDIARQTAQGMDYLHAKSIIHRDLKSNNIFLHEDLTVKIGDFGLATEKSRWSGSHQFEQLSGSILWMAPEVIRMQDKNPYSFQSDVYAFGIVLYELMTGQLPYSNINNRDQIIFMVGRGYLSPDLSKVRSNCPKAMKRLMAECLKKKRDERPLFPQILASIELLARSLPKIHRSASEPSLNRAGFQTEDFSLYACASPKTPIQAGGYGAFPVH
# protocol-description: HiBiT cellular BRAF^V600E degradation assay
# Format: cell-based
# test-conditions: A375.10 cells, 24 h; concentration at which 50% of total cellular BRAF^V600E is degraded
// reported DC50 per item

compound	DC50
CCN(C)S(=O)(=O)Nc1ccc(F)c(Oc2ccc3ncn([C@H]4CCC5(CCN(C(=O)CN6CCC(c7ccc(NC8CCC(=O)NC8=O)c(F)c7F)CC6)CC5)C4)c(=O)c3c2)c1C#N (stereo partly drawn)	0.0204 µM
CCN(C)S(=O)(=O)Nc1ccc(F)c(Oc2ccc3ncn(C4COC5(CCN(C(=O)CN6CCC(c7ccc(NC8CCC(=O)NC8=O)cc7F)CC6)CC5)C4)c(=O)c3c2Cl)c1C#N (stereo not drawn)	0.0376 µM
CCN(C)S(=O)(=O)Nc1ccc(F)c(Oc2ccc3ncn(-c4cnn(C5CCN(C(=O)CN6CCC(c7ccc8c(C9CCC(=O)NC9=O)nn(C)c8c7)CC6)CC5)c4)c(=O)c3c2)c1C#N (stereo not drawn)	0.0222 µM

###

# tgt: BRAF V600E (Homo sapiens, UniProt P15056, V600E)
# protocol-description: HiBiT cellular BRAF^V600E degradation assay
# Format: cell-based
# test-conditions: A375.10 cells, 24 h; residual protein remaining in the cell; read-out: HiBit 24 h Emax
1 if Emax is below 20%. -1 if not; exact matches included in -1.

compound	qualitative-label
CCN(C)S(=O)(=O)Nc1ccc(F)c(Oc2ccc3ncn(-c4cnn(C5CCN(C(=O)CN6CCC(c7ccc(C8CCC(=O)NC8=O)cc7F)CC6)CC5)c4)c(=O)c3c2)c1C#N (stereo not drawn) [Example 17]	-1
N#Cc1c(NS(=O)(=O)N2C[C@H]3C[C@H]3C2)ccc(F)c1Oc1ccc2ncn(-c3cnc(N4CCN(C(=O)CN5CCC(c6ccc(N[C@H]7CCC(=O)NC7=O)cc6F)CC5)CC4)nc3)c(=O)c2c1 [Example 128]	1
N#Cc1c(NS(=O)(=O)N2CC[C@@H](F)C2)ccc(F)c1Oc1ccc2ncn(-c3cnc(N4CCN(C(=O)CN5CCC(c6ccc(N[C@@H]7CCC(=O)NC7=O)cc6F)CC5)CC4)nc3)c(=O)c2c1 [Example 124]	1
CCN(C)S(=O)(=O)Nc1ccc(F)c(Nc2ccc3ncn([C@H]4COC5(CCN(C(=O)CC6(O)CCN(c7cc8c(cc7F)c(N7CCC(=O)NC7=O)nn8C)CC6)CC5)C4)c(=O)c3c2)c1C#N (single isomer, unassigned) [Example 178]	1
COC1CCN(S(=O)(=O)Nc2ccc(F)c(Oc3ccc4ncn([C@H]5COC6(CCN(C(=O)CC7(O)CCN(c8cc9c(cc8F)c(N8CCC(=O)NC8=O)nn9C)CC7)CC6)C5)c(=O)c4c3)c2C#N)C1 (stereo partly drawn) [Example 175]	-1
CCN(C)S(=O)(=O)Nc1ccc(F)c(Oc2ccc3ncn([C@H]4COC5(CCN(C(=O)CC6(O)CCN(c7ccc8c(N9CCC(=O)NC9=O)nn(C)c8c7F)CC6)CC5)C4)c(=O)c3c2)c1C#N [Example 173]	-1
CCN(C)S(=O)(=O)Nc1ccc(F)c(Oc2ccc3ncn(-c4cnn(C5CCN(C(=O)CN6CCC(c7ccc8c(C9CCC(=O)NC9=O)nn(C)c8c7)CC6)CC5)c4)c(=O)c3c2)c1C#N (stereo not drawn) [Example 146]	1
CCN(C)S(=O)(=O)Nc1ccc(F)c(Oc2ccc3ncn([C@H]4CCC5(CCN(C(=O)CC6(O)CCN(c7cc8c(cc7F)c(N7CCC(=O)NC7=O)nn8C)CC6)CC5)C4)c(=O)c3c2)c1C#N [Example 159]	1
CCN(C)S(=O)(=O)Nc1ccc(F)c(Oc2ccc3ncn(-c4ccc(N5CCN(C(=O)CN6CCC(c7ccc(N[C@H]8CCC(=O)NC8=O)cc7F)CC6)CC5)nc4)c(=O)c3c2)c1C#N [Example 94]	1
